Assay Protocol: Drug concentration in C57BL/6 mouse brain at 1 mg/kg, ip administered as single dose measured after 120 mins by LC/MS analysis based RACE assay
Type: ADME, organism-based
Set-up: dose 1 mg/kg, route intraperitoneal
Recorded Conditions: read-out: Drug uptake
Metric: concentration at 2 h

What does the data say about its concentration at 2 h? Entry: "CN1CCN(C)/C(=N/c2ccc([N+](=O)[O-])cc2C(=O)Nc2ccccc2)C1"
190 nM

* * *

Assay Protocol: Cytotoxicity against african green monkey Vero 76 cells after 3 days by Celltiter-Glo reagent based assay
Type: cell-based
Recorded Conditions: chlorocebus sabaeus, vero 76, 72 h
Metric: CC50

What does the data say about its CC50? Entry: "COc1ccc(NC(=O)c2cc([N+](=O)[O-])ccc2/N=C2\CN(C)CCN2C)cc1"
> 50 µM

What does the data say about its CC50? Entry: "CC(C)N1CCN(Cc2nc3ccc([N+](=O)[O-])cc3c(=O)n2-c2ccccc2F)CC1"
> 50 µM

What does the data say about its CC50? Entry: "CCN1CCN(Cc2nc3ccc([N+](=O)[O-])cc3c(=O)n2-c2ccc(F)cc2)CC1"
> 50 µM

What does the data say about its CC50? Entry: "O=C1CN(Cc2nc3ccc([N+](=O)[O-])cc3c(=O)n2-c2ccccc2F)CCN1"
> 50 µM

What does the data say about its CC50? Entry: "CCN1CCN(Cc2nc3ccc([N+](=O)[O-])cc3c(=O)n2C)CC1"
> 50 µM

What does the data say about its CC50? Entry: "O=c1c2cc([N+](=O)[O-])ccc2nc(CN2CCN(c3ccccc3)CC2)n1-c1ccccc1F"
> 50 µM

What does the data say about its CC50? Entry: "COc1ccc(-n2c(CN3CCNCC3)nc3ccc([N+](=O)[O-])cc3c2=O)cc1"
> 50 µM

What does the data say about its CC50? Entry: "O=c1c2cc([N+](=O)[O-])ccc2nc(CN2CCOCC2)n1-c1ccccc1F"
> 50 µM

What does the data say about its CC50? Entry: "CN1CCN(C)/C(=N/c2ccc([N+](=O)[O-])cc2C(=O)NCc2ccccc2)C1"
> 50 µM

What does the data say about its CC50? Entry: "CCN1CCN(Cc2nc3ccc(-c4ccccn4)cc3c(=O)n2-c2ccccc2)CC1"
> 50 µM

What does the data say about its CC50? Entry: "CN1CCN(C)/C(=N/c2cc([N+](=O)[O-])ccc2C(=O)Nc2ccccc2)C1"
> 50 µM

What does the data say about its CC50? Entry: "CN1CCN(C)/C(=N/c2ccc(C(F)(F)F)cc2C(=O)Nc2ccccc2)C1"
> 50 µM

What does the data say about its CC50? Entry: "CN1CCN(C)/C(=N/c2ccc([N+](=O)[O-])cc2C(=O)Nc2ccc(F)cc2)C1"
> 50 µM

What does the data say about its CC50? Entry: "CN1CCN(C)/C(=N/c2ccc([N+](=O)[O-])cc2C(=O)Nc2ccsc2)C1"
> 50 µM

What does the data say about its CC50? Entry: "COc1cccc(NC(=O)c2cc([N+](=O)[O-])ccc2/N=C2\CN(C)CCN2C)c1"
> 50 µM

What does the data say about its CC50? Entry: "COc1cccc(-n2c(CN3CCNCC3)nc3ccc([N+](=O)[O-])cc3c2=O)c1"
> 50 µM

What does the data say about its CC50? Entry: "O=c1c2cc([N+](=O)[O-])ccc2nc(CN2CCNCC2)n1-c1ccccc1F"
> 50 µM

What does the data say about its CC50? Entry: "O=c1c2cc([N+](=O)[O-])ccc2nc(CN2CCCNCC2)n1-c1ccccc1"
> 50 µM

What does the data say about its CC50? Entry: "CN1CCN(C)/C(=N/c2ccccc2C(=O)Nc2ccccc2)C1"
> 50 µM

What does the data say about its CC50? Entry: "CC(C)NC(=O)c1cc([N+](=O)[O-])ccc1/N=C1\CN(C)CCN1C"
> 50 µM
